System: 786-0
TEST_METHOD_NOTES: NCI tumour cell line growth inhibition, 48 h
Active and inactive are the calls of the source. Rule as the data show it: active = GI50 up to about 1.1 µM and inactive = higher.
A correct response names exactly one class from 1.0 for active, 0.0 for inactive

-- ask Dear colleague, could you share the recorded outcome for `CN(N)c1cc(=O)[nH]c(=O)[nH]1` when you have a moment?
-- reply 0.0

-- ask Dear colleague, could you share the recorded outcome for `c1ccc(N/N=C2\NN=C(c3ccccc3)CS2)cc1` when you have a moment?
-- reply 0.0

-- ask Dear colleague, could you share the recorded outcome for COC(=O)Nc1nc2cc(S(=O)(=O)NC(CC(C)C)C(=O)OC)ccc2[nH]1 (configuration not stated) when you have a moment?
-- reply 0.0

-- ask Dear colleague, could you share the recorded outcome for N#CC1C(=O)NC(=O)C(C#N)C1c1ccc(Cl)c(Cl)c1 (configuration not stated) when you have a moment?
-- reply 0.0

-- ask Dear colleague, could you share the recorded outcome for CC1(C)CC(O)CC(C)(C)N1O [TEMPOL HYDROXYLAMINE] when you have a moment?
-- reply 0.0

-- ask Dear colleague, could you share the recorded outcome for `Cc1nc(OCc2ccccc2)c2ncn(CCO)c2n1` when you have a moment?
-- reply 0.0

-- ask Dear colleague, could you share the recorded outcome for `N#C/C(=C/c1ccco1)C(=O)c1ccccc1` when you have a moment?
-- reply 0.0

-- ask Dear colleague, could you share the recorded outcome for `CC(=O)c1cc2sc3ccccc3c2[nH]1` when you have a moment?
-- reply 0.0

-- ask Dear colleague, could you share the recorded outcome for `CNC(=S)NNc1ncnc2c1ncn2-c1ccc(C)cc1` when you have a moment?
-- reply 0.0

-- ask Dear colleague, could you share the recorded outcome for `O=C1C(Nc2ccccc2)=CC2=NCCc3n[nH]c1c32` when you have a moment?
-- reply 0.0

-- ask Dear colleague, could you share the recorded outcome for CC(=O)OC1/C(=C/c2ccc([N+](=O)[O-])cc2)C[C@H]2[C@@H]3CC=C4C[C@@H](OC(C)=O)CC[C@]4(C)[C@H]3CC[C@]12C (some centres not stated) when you have a moment?
-- reply 0.0

-- ask Dear colleague, could you share the recorded outcome for COc1c(O)c2c3c(c(C)cc(O)c3c1O)C(=O)C(O)(C(C)(C)C(C)=O)C2=O (configuration not stated) when you have a moment?
-- reply 0.0

-- ask Dear colleague, could you share the recorded outcome for COc1ccc2cc(C(C)C(=O)N3CCOC3=O)ccc2c1 (configuration not stated) when you have a moment?
-- reply 0.0

-- ask Dear colleague, could you share the recorded outcome for `COC(=O)C1(OC(=O)Sc2ccccc2)CCN(C)CC1` when you have a moment?
-- reply 0.0

-- ask Dear colleague, could you share the recorded outcome for O=C(CN1CCCCC1)N1CCc2c([nH]c3ccccc23)C1c1cccnc1 (configuration not stated) when you have a moment?
-- reply 0.0

====

Tested on: Hs-578T
TEST_METHOD_NOTES: NCI tumour cell line growth inhibition, 48 h
Active and inactive are the calls of the source. Rule as the data show it: active = GI50 up to about 1.1 µM and inactive = higher.
Recorded GI50 by entry

Examples from the recorded data:
C[C@]12CCC(=O)C=C1CC[C@@H]1[C@@H]2[C@@H](O)C[C@@]2(C)[C@H]1CC[C@]2(O)C(=O)COC(=O)C1CCCC1    > 100 µM (inactive)
COc1ccc2c(c1)CCC(CN1CCN(CCOC(c3ccc(F)cc3)c3ccc(F)cc3)CC1)C2O (stereo unspecified)    15.4 µM (inactive)
N#CC1C(=O)NC2=C(CCOc3c2ccc2ccccc32)C1c1ccc(F)cc1 (stereo unspecified)    16.2 µM (inactive)
OC(C/C=N/N=C/CC(O)(C(F)(F)Cl)C(F)(F)Cl)(C(F)(F)Cl)C(F)(F)Cl    > 10 µM (inactive)
COc1ccc(-n2c(-c3ccccc3)cc(-c3cccs3)c2-c2cccs2)cc1    > 100 µM (inactive)

-- ask Look at this molecule and give its reported GI50. `CCOC(=O)c1sc2c(c1OC(=O)c1ccc(OC)cc1)c(=O)n(-c1ccccc1)c(=S)n2-c1ccccc1`
-- reply > 100 µM (inactive)

-- ask Look at this molecule and give its reported GI50. `c1ccc(-c2c(-c3[nH]c4ccccc4c3-c3ccccc3)[nH]c3ccccc23)cc1`
-- reply 9.38 µM (inactive)

-- ask Look at this molecule and give its reported GI50. `CSc1ncc2c(n1)-c1ccccc1OC2`
-- reply 26.5 µM (inactive)

-- ask Look at this molecule and give its reported GI50. `NC(=O)Cn1c(=O)oc2cc(C(=O)CN3CCOCC3)ccc21`
-- reply > 100 µM (inactive)

-- ask Look at this molecule and give its reported GI50. `COc1ccc2c(c1O)[C@@]13CCCC=C1[C@@H](C2)[N+](C)(C)CC3`
-- reply 77.3 µM (inactive)

-- ask Look at this molecule and give its reported GI50. COC(=O)Nc1nc2cc(S(=O)(=O)NC(CC(C)C)C(=O)OC)ccc2[nH]1 (stereo unspecified)
-- reply 0.818 µM (active)

====

Test system: CCRF-CEM
TEST_METHOD_NOTES: NCI tumour cell line growth inhibition, 48 h
Active and inactive are the calls of the source. No stated cut-off is given here; in the data, active = GI50 up to about 1.1 µM and inactive = higher.
A correct response names exactly one class from True = active, False = inactive

CC1(C)CCC2=C(O1)/C(=N\Nc1ccccc1)c1ccccc1C2=O    False

-- ask Dear colleague, could you share the recorded outcome for NC(CCCCNCc1ccccc1)C(=O)O (stereo not drawn) when you have a moment?
-- reply False

-- ask Dear colleague, could you share the recorded outcome for N#CC1C(=O)NC(=O)C(C#N)C1c1ccc(Cl)c(Cl)c1 (stereo not drawn) when you have a moment?
-- reply False

-- ask Dear colleague, could you share the recorded outcome for `CC(=O)Oc1ccc(Nn2c3ccccc3c3ccccc32)c(C)c1` when you have a moment?
-- reply False

-- ask Dear colleague, could you share the recorded outcome for CC(=O)C1(O)Cc2c(O)c3c(c(O)c2C(OC2CC(N)C(O)C(C)O2)C1)C(=O)c1ccccc1C3=O (stereo not drawn) when you have a moment?
-- reply True

-- ask Dear colleague, could you share the recorded outcome for `O=C1O/C(=C\c2ccc(O)cc2)C(c2ccc(O)c(Cl)c2)=C1Br` when you have a moment?
-- reply False

-- ask Dear colleague, could you share the recorded outcome for CNC(=O)C(C)C1CCC2(C)C=CC(=O)C(C)=C2C1O (stereo not drawn) when you have a moment?
-- reply False

-- ask Dear colleague, could you share the recorded outcome for c1cc(-c2ccc(-c3ccc(C4=NC5CCCCC5N4)cc3)o2)ccc1C1=NC2CCCCC2N1 (stereo not drawn) when you have a moment?
-- reply False

-- ask Dear colleague, could you share the recorded outcome for `CN(N)c1cc(=O)[nH]c(=O)[nH]1` when you have a moment?
-- reply False

-- ask Dear colleague, could you share the recorded outcome for `O=C1NC(=O)C(c2c[nH]c3ccccc23)=C1c1cnc[nH]1` when you have a moment?
-- reply False

-- ask Dear colleague, could you share the recorded outcome for `N#CC(=S)Nc1ccc(F)cc1` when you have a moment?
-- reply False

-- ask Dear colleague, could you share the recorded outcome for `COc1cc2c(cc1OC)-c1c3c(cc4c1[C@@H](C2)N(C)CC4)OCO3` when you have a moment?
-- reply False

====

Tested on: MDA-MB-435
TEST_METHOD_NOTES: NCI tumour cell line growth inhibition, 48 h
Active and inactive are the calls of the source. No stated cut-off is given here; in the data, active = GI50 up to about 1.1 µM and inactive = higher.
A correct response names exactly one class from active, inactive

OCC1COc2cc(Cl)c(Cl)cc2O1 (stereo not drawn)    inactive
C[C@H]1[C@H]2[C@H]3CC[C@@H]4[C@@]5(C)CC[C@H](O)C(C)(C)[C@@H]5CC[C@@]4(C)[C@]3(C)C[C@H](O)[C@@]2(C)C[C@H]2O[C@]21C    inactive
CCN(CC)c1ccc2cc(-c3nnc(-c4ccccc4)o3)c(=O)oc2c1    inactive
CNC(=O)CNC(=O)N(C[C@@H]1CCCN1C(=O)[C@H](CC(C)C)NC(=O)OC(C)(C)C)C(C)C    inactive
O=C(NCc1ccc(Cl)c(Cl)c1)c1nc2ccccc2nc1NCc1ccc(Cl)c(Cl)c1    inactive
CC(=O)OC1CC2C(=O)CC1(C)C2(C)C (stereo not drawn)    inactive
COc1ccc(/C=C2\CC3C4CC=C5C[C@@H](O)CC[C@]5(C)C4CC[C@]3(C)C2=O)cc1OC (stereo partly drawn)    inactive
Cc1cc(C)c(S(=O)(=O)N(CCCCCCN)OCCCN)c(C)c1    inactive
C/C(=C\Cc1ccc(F)cc1)CCCCCC/C(C)=C/Cc1ccc(F)cc1    inactive
O=C1/C(=C/c2ccc(Cl)cc2)N=C(c2ccccc2)N1c1nc2ccc(Sc3ccccc3)cc2[nH]1    inactive

-- ask Dear colleague, could you share the recorded outcome for `O=C1OC(=O)c2c1cc1cc3c(cc1c2-c1ccc2c(c1)OCO2)OCO3` when you have a moment?
-- reply inactive

-- ask Dear colleague, could you share the recorded outcome for `O=C1C(=O)N(C23CC4CC(CC(C4)C2)C3)C(=S)N1c1ccccc1` when you have a moment?
-- reply inactive

-- ask Dear colleague, could you share the recorded outcome for `COc1ccc(-n2c(-c3ccccc3)cc(-c3cccs3)c2-c2cccs2)cc1` when you have a moment?
-- reply inactive

-- ask Dear colleague, could you share the recorded outcome for `N=C(N)SCc1nc(-c2ccc(Cl)cc2)no1` when you have a moment?
-- reply inactive

-- ask Dear colleague, could you share the recorded outcome for `CCn1c2ccccc2c2cc(/N=N\c3ccc(C#N)cc3)ccc21` when you have a moment?
-- reply inactive

-- ask Dear colleague, could you share the recorded outcome for O=C1NC2(CN3CCC2CC3)C(=O)N1CN(Cc1ccccc1)c1ccccc1 (stereo not drawn) when you have a moment?
-- reply inactive

-- ask Dear colleague, could you share the recorded outcome for CC1(C)CC(O)CC(C)(C)N1O [TEMPOL HYDROXYLAMINE] when you have a moment?
-- reply inactive

-- ask Dear colleague, could you share the recorded outcome for COc1ccc(CC2C(=O)NC(C)C(=O)N(C)C3C(=O)N(C)C(Cc4ccc(O)c(c4)Oc4ccc(cc4)C3O)C(=O)NC(C)C(=O)NC(C)C(=O)N2C)cc1.COc1ccc(CC2C(=O)NC(C)C(=O)N(C)C3Cc4ccc(cc4)Oc4cc(ccc4O)CC(C(=O)NC(C)C(=O)NC(C)C(=O)N2C)N(C)C3=O)cc1 (stereo not drawn) when you have a moment?
-- reply active
